biological target: Bac-F; test: BIAcore, mAb vs Bac-F (1:1)
pKd: −log10 of the molar value.
Below, each of the binders is paired with its reported pKd value.

>  <Binder>
A17d4 (monoclonal antibody) (antibody, V domains shown) VH: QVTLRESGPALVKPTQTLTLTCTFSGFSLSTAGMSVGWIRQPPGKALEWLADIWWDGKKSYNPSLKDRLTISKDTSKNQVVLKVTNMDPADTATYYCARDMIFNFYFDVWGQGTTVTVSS VL: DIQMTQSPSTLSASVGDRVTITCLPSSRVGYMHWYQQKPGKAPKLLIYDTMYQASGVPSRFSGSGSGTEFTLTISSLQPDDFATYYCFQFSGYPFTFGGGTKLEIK

>  <pKd>
10.05

$$$$
>  <Binder>
A12a6 (monoclonal antibody) (antibody, V domains shown) VH: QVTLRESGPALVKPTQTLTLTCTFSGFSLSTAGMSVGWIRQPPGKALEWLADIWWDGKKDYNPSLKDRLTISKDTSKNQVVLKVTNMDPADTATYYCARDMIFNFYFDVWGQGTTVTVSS VL: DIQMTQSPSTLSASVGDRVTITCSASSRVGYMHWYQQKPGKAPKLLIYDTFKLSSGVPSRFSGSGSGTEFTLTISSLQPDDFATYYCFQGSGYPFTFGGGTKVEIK

>  <pKd>
10.40

$$$$
>  <Binder>
A8c7 (monoclonal antibody) (antibody, V domains shown) VH: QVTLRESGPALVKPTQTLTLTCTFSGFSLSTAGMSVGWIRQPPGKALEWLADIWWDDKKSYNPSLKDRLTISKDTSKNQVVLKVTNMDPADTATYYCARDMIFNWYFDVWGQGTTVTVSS VL: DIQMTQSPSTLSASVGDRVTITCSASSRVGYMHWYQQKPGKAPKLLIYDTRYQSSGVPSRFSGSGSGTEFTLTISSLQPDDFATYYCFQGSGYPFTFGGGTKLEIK

>  <pKd>
9.68

$$$$
